# assay-procedure: physchem
# assay-setup: pH 2
measured-quantity: logP
Response field accepts a number only; no unit should be typed.

Identify the reported logP for the following entry. CON/C(=N/[N+](=O)[O-])NCc1cnc(Cl)s1
1.13
